- target: Ubiquitin carboxyl-terminal hydrolase 28 (Homo sapiens)
- procedure details: Concentration-response biochemical assay confirming initial hits as inhibitors of ubiquitin-specific protease 28 (AID 1645866)
- condition details: purified USP28, ubiquitin-rhodamine fluorescence, 30 min
Calls of active or inactive are those of the source.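 Rule for the calls: active = in confirmatory dose-response testing, peak deubiquitinase inhibition of 30% or more; inactive = the rest.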
Outcomes: Yes (active), No (inactive)

compound	classification
CCn1c(CN2CCCC(c3nc(-c4cccnc4)n[nH]3)C2)nc2ccccc21 (stereo not drawn)	Yes
COc1ccc(/C=C/c2ccnc3nc(-n4cccc4)nn23)cc1	No
COc1ccccc1NC(=O)Cn1cc(C(=O)c2ccc(C)cc2)c(=O)c2cc(Cl)ccc21	Yes
Cc1cc(C)n2nc(CNc3cccc(Cl)c3)nc2n1	Yes
COc1ccc(-c2cc(-c3ccc(O)cc3)nc(N)c2C#N)cc1OC	Yes
Cn1c(COc2ccccc2)nnc1SCC(=O)Nc1ccc(N2CCOCC2)cc1	Yes
Cc1ccc(NCc2cc3c(C(C)(C)C)nn(-c4ccc(Cl)cc4)c3[nH]c2=O)cc1	Yes
CC1CC[C@@]2(NC1)O[C@H]1C[C@H]3[C@@H]4CC=C5C[C@@H](O)CC[C@]5(C)[C@H]4CC[C@]3(C)[C@H]1[C@@H]2C (stereo partly drawn)	Yes
COc1cc(Cl)ccc1C(=O)Nc1cccc(-n2cnnn2)c1C	Yes
COc1ccc(N2CCN(Cc3nnnn3Cc3ccc4c(c3)OCO4)CC2)cc1	No
O=S(=O)(c1cccc2cccnc12)N(CCc1ccccc1)C1CCN(CCc2ccc(Cl)cc2)CC1	No
Cc1cccc(C(=O)Nc2cccc(SC(C(=O)Nc3ccc(Cl)c(C(=O)O)c3)c3ccccc3)c2)c1 (stereo not drawn)	Yes
CC1=C(C)C(N(c2ccccc2)c2ccccc2)N(CCC(C)C)C1=O (stereo not drawn)	Yes
